Field: NF-kB reporter. Provide a value for each of the compounds that follow.
Tested on: RAW-Dual (murine macrophage reporter line)
assay_info: NF-kB reporter (SEAP) activity fold change vs agonist alone; higher = enhanced NF-kB activity
experimental_parameters: modulator concentration 10 µM; agonist: LPS 0.1 ug/mL
One number for each entry.

Please review the entries below; each comes with its answer.
| compound | NF-kB reporter |
| --- | --- |
| CC1=C(C(=O)OC(C)C)C(c2cccc([N+](=O)[O-])c2)C(C(=O)OC2CN(C(c3ccccc3)c3ccccc3)C2)=C(N)N1 (stereo not drawn) | 1.82 |
| CC1CN(Cc2ccccn2)CCC1=O (stereo not drawn) | 0.993 |
| Cc1nnc(NC(=O)c2ccccc2C(=O)O)s1 | 0.969 |

Working through the 6 compounds below one at a time, give NF-kB reporter for each.
1. CC(O)(P(=O)(O)O)P(=O)(O)O
2. O=C(/C=C/c1cccc(S(=O)(=O)Nc2ccccc2)c1)NO
3. CCOc1ccccc1NC(=O)N1CCCC1CS(=O)(=O)c1ccccc1 (stereo not drawn)
4. Cc1ccc(OCCCOc2cccc3cccnc23)c(Br)c1
5. O=[N+]([O-])c1cc(C(O)(C(F)(F)F)C(F)(F)F)cc([N+](=O)[O-])c1Cl
6. O=C(O)CC(C(=O)O)N1C(=O)C(=C2C(=O)Nc3ccc(Br)cc32)SC1=S (stereo not drawn)

1: 0.997; 2: 1.73; 3: 1.15; 4: 1.01; 5: 1.03; 6: 1.05

Working through the 3 compounds below one at a time, give NF-kB reporter for each.
1. Cc1cc(NC(=O)CC(C)C)ccc1N1CCCCC1=O
2. Brc1ccc2ncnc(Nc3ccccc3)c2c1
3. COc1ccc(C=NNc2nc(-c3ccccc3)cc(-c3ccc(Br)cc3)n2)c(OC)c1

1. 1.03
2. 1.25
3. 0.94

Working through the 5 compounds below one at a time, give NF-kB reporter for each.
1. CC1(C)CC(=O)C2=C(C1)OC(N)=C(C#N)C2c1ccccc1C(F)(F)F (stereo not drawn)
2. CCC1=C(C)CN(C(=O)NCCc2ccc(S(=O)(=O)NC(=O)N[C@H]3CC[C@H](C)CC3)cc2)C1=O
3. CC1(C)Cc2c(sc3nc(SCC(N)=O)n(CCc4ccccc4)c(=O)c23)CO1
4. COc1ccc(OC)c(CN2CCCC(O)C2)c1 (stereo not drawn)
5. CN1C(=O)OC(C)(C)C1=O

1: 1.09; 2: 1.08; 3: 0.814; 4: 1.01; 5: 1.09

###

Test system: RAW-Dual (murine macrophage reporter line)
assay_info: viability score (confluency relative to resting cells, overnight) (fraction); higher = more viable, active = viable (0.7 or more)
experimental_parameters: modulator concentration 10 µM
Field: viability score. Provide a value for each of the compounds that follow.
Numbers only.

Working through the 5 compounds below one at a time, give viability score for each.
1. O=C(Cn1c(C(F)(F)F)nc2ccccc21)c1ccc(OC(F)F)cc1
2. CC(C)Oc1ccc(C(=O)N2CCC(c3ccccc3)S(=O)(=O)CC2)cc1 (centres undefined)
3. CCN(CC)S(=O)(=O)c1ccc(C(=O)Nc2cc(C)nn2-c2nc(C)c(C)c(=O)[nH]2)cc1
4. CSCCC(NC(C)=O)C(=O)N1CCc2nc3ccc(Cl)cn3c(=O)c2C1 (centres undefined)
5. Cc1cccc(Sc2nccn3c(=O)n(CC(=O)N4CCN(c5ccccc5)CC4)nc23)c1

1: 1.01; 2: 0.992; 3: 0.99; 4: 0.986; 5: 0.983

Working through the 2 compounds below one at a time, give viability score for each.
1. Cc1c(Cl)cccc1S(=O)(=O)NCc1ccnc(N2CCCC2=O)c1
2. CCOc1ccc(C=NNc2nc(C)cs2)c(O)c1

1. 0.957
2. 0.999

Working through the 7 compounds below one at a time, give viability score for each.
1. O=C(CC1CC1)N1CCN(c2cc(C(F)(F)F)ncn2)CC1
2. CCc1ccc2ncc(C#N)c(Nc3cc(OC)c(OC)c(OC)c3)c2c1.Cl
3. O=C1NC(=O)C(=Cc2ccc(-c3cccc(Cl)c3)o2)S1
4. CC(=O)NC(c1ccccc1)c1c(OC(=O)COc2ccccc2)ccc2ccccc12 (centres undefined)
5. CCC[C@@H]1C[C@@H](C(=O)N[C@@H]([C@H]2O[C@H](SC)[C@H](OP(=O)(O)O)[C@@H](O)[C@H]2O)[C@H](C)Cl)N(C)C1
6. CN(C)CCC(c1ccc(Cl)cc1)c1ccccn1.O=C(O)/C=C\C(=O)O (centres undefined)
7. CC(C)Sc1ccc(CC(=O)N2CCC(S(C)(=O)=O)C2)cc1 (centres undefined)

1: 1.01; 2: 0.903; 3: 0.943; 4: 1.01; 5: 1; 6: 0.995; 7: 0.993

###

Tested on: RAW-Dual (murine macrophage reporter line)
assay_info: NF-kB reporter (SEAP) activity fold change vs agonist alone; higher = enhanced NF-kB activity
experimental_parameters: modulator concentration 10 µM; agonist: MPLA […]
Field: NF-kB reporter. Provide a value for each of the molecules that follow.
One number for each entry.

Please review the entries below; each comes with its answer.
| molecule | NF-kB reporter |
| --- | --- |
| Cc1cc(OCC(=O)NC2CC(C)(C)NC(C)(C)C2)ccc1Br | 1.05 |
| Oc1ccc(CN2CCOCC2)cc1 | 0.971 |
| O=C(c1ccc(-c2nc3ccccc3s2)s1)N1CCOCC1 | 1.16 |
| CCOc1ccc(N=Cc2c(Nc3ccc(OCC)cc3)nc3ccccn3c2=O)cc1 | 1.19 |
| CC(Oc1cccc(Cl)c1)C(=O)NCc1ccncc1 (stereo not given) | 1.07 |
| CC(C)(C)c1ccc(=O)n(CC2CN(S(C)(=O)=O)C2)n1 | 0.918 |
| Nc1nc2ccc(OC(F)(F)F)cc2s1 | 1.02 |
| O=C(CC1CCCCN1S(=O)(=O)c1ccccc1)NCCC1=CCCCC1 (stereo not given) | 0.903 |
| CN[C@H]1CC[C@@H](c2ccc(Cl)c(Cl)c2)c2ccccc21.Cl | 1.49 |
| CCOC(=O)Cc1nnnn1C | 1.01 |

Working through the 8 molecules below one at a time, give NF-kB reporter for each.
1. Cc1cc(CNC(=O)CCc2ccc(S(C)(=O)=O)cc2)c(C)o1
2. CN(C)CC(c1ccc(O)cc1)C1(O)CCCCC1.O=C(O)CCC(=O)O (stereo not given)
3. Cc1cc(NC2CCCC2)nc2ccccc12
4. CC(CN1c2ccccc2Sc2ccccc21)N(C)C.Cl (stereo not given)
5. c1ccc(-c2cc3c4cccn4ccn3c2)cc1
6. Cc1ccc2oc(-c3cccc(NC(=O)C(C)C)c3C)nc2c1
7. CC1(C)CC(=O)C2=C(C1)OC(N)=C(C#N)C2c1ccccc1C(F)(F)F (stereo not given)
8. NCCCCC(=O)O.O=C1c2ccccc2C(=O)C1[N+](=O)[O-]

1: 1.04; 2: 0.531; 3: 1.91; 4: 0.96; 5: 0.848; 6: 0.972; 7: 1.06; 8: 0.843

###

Field: NF-kB reporter. Provide a value for each of the molecules that follow.
System: RAW-Dual (murine macrophage reporter line)
assay_info: NF-kB reporter (SEAP) activity fold change vs agonist alone; higher = enhanced NF-kB activity
experimental_parameters: modulator concentration 10 µM; agonist: LPS 0.1 ug/mL

Please review the entries below; each comes with its answer.
| molecule | endpoint_value |
| --- | --- |
| Cc1ccnc2c1NC(=O)c1cccnc1N2C1CC1 | 1.2 |
| CC1=NN(C(=O)CCCc2ccccc2)C(O)(c2ccc(Cl)cc2)C1 (stereo not given) | 1 |
| Cc1cccc(Sc2nccn3c(=O)n(CC(=O)N4CCN(c5ccccc5)CC4)nc23)c1 | 0.589 |
| CC(C)CN(C[C@@H](O)[C@H](Cc1ccccc1)NC(=O)O[C@H]1CO[C@H]2OCC[C@H]21)S(=O)(=O)c1ccc(N)cc1 | 1.08 |
| COC(=O)Nc1nc2cc(C(=O)c3cccs3)ccc2[nH]1 | 1.31 |
| CCCCN(CCCC)CC(=O)Nc1c2c(nc3ccccc13)CCC2.O=C(O)C(=O)O | 1.1 |

Working through the 4 molecules below one at a time, give NF-kB reporter for each.
1. Cc1ncc(CC(=O)N2CCC(c3ccccc3Cl)S(=O)(=O)CC2)s1 (stereo not given)
2. CCN(CC)CCOCCOC(=O)C1(c2ccccc2)CCCC1
3. CCS(=O)(=O)N1CCC2(CC1)NC(=O)N(CCOc1ccccc1)C2=O
4. Br.O=S(=O)(c1ccc(-c2csc(Nc3ccc(Cl)cc3)n2)cc1)N1CCCC1

1. 0.974
2. 1.14
3. 1.05
4. 1.04

###

Field: NF-kB reporter. Provide a value for each of the compounds that follow.
System: RAW-Dual (murine macrophage reporter line)
assay_info: NF-kB reporter (SEAP) activity fold change vs agonist alone; higher = enhanced NF-kB activity
experimental_parameters: modulator concentration 10 µM; agonist: LPS 0.1 ug/mL

Please review the entries below; each comes with its answer.
| compound | NF-kB reporter |
| --- | --- |
| O=C(CCCn1nc(-c2ccc(F)cc2)ccc1=O)Nc1ccc(C(F)(F)F)cc1 | 0.97 |
| NC(=O)OCC(COC(N)=O)c1ccccc1 | 1.02 |
| NNC(=O)CN1C(=O)C2CC=C(Cl)CC2C1=O (stereo unspecified) | 0.976 |
| CC(=O)N=C1NC(=O)C(=Cc2ccc(C)o2)S1 | 0.847 |
| CS(=O)(=O)N(CC(=O)N1CCCCCC1)c1ccc(Cl)c(C(F)(F)F)c1 | 1.21 |

Here is another compound to look at.
Given the entry CC(=O)N1CCC(C(=O)N2CCOCC2CN(C)C)CC1.O=CO (stereo unspecified) , report its measured NF-kB reporter.
1.08
